Every entry's value here was drawn from PubChem BioAssay AID1345082.

Assay: Cytotoxic Profiling in NIH 3T3 Cell Line of Diverse Libraries Using Quantitative High-Throughput Screening; further: nearly all actives have a fitted effect of over 55% in size
Settings: NIH 3T3 viability, CellTiter-Glo ATP luminescence, 48-72 h; series mostly up to 96.7 µM
The whole screen tested about 94,000 compounds, of which about 4,000 (4.3%) were called active. Roughly 29% stayed inconclusive and do not appear here. The call rests on the fitted dose curve; in most records, active means well fitted inhibition curve with a large enough effect; inconclusive means small, poorly fitted or top-dose-only effect; inactive means no such curve, though single readings can be large or run the other way. The full list was thinned out, with actives kept by preference.
Classes used: active, inactive

molecule="CC(=O)NC1CC2(CCN(C(=O)Cc3c[nH]c4ccccc34)CC2)c2ccccc21 (stereo not given)" class_assignment=inactive
molecule=Cc1c(C(=O)N2C[C@@H](CN(C)C)C[C@H](CO)C2)n(C)c2c(C)cccc12 class_assignment=inactive
molecule=Cc1cnc(-c2cccnc2)n1C1CCN(S(=O)(=O)c2cccc(F)c2)CC1 class_assignment=inactive
molecule="Cn1c(=O)[nH]cc(CC(=O)N2CCCC(c3cccc(C(=O)O)c3)C2)c1=O (stereo not given)" class_assignment=inactive
molecule=CN1[C@@H](CCC(=O)N2CCCC2)CNC(=O)[C@@H]2[C@H]1CCN2Cc1ccc(S(C)(=O)=O)cc1 class_assignment=inactive
molecule=COc1ccc(-c2cc(N3CCC(NC(=O)c4ccoc4)CC3)n[nH]2)cc1 class_assignment=inactive
molecule=COc1ccc(-c2cccc(C(=O)N3CCC(NC(=O)c4ccc(C(F)(F)F)cc4)CC3)c2)nn1 class_assignment=inactive
molecule="CC(=O)NC1(C)CCN(Cc2cccc(-c3ccc(C(=O)c4ccccc4)cc3)c2)C1 (stereo not given)" class_assignment=active
molecule=Cc1cccc(-c2cc(C3CCN(S(=O)(=O)c4cccc(C#N)c4)CC3)[nH]n2)c1 class_assignment=active
molecule=Cc1noc(C)c1-c1nccc2c(=O)cc(N3CCOCC3)oc12 class_assignment=active
molecule="Cc1cnc(CC2CCN(S(=O)(=O)c3ccc(C#N)cc3)C2)n1Cc1ccccc1 (stereo not given)" class_assignment=inactive
molecule=C=CCNC(=O)N[C@H]1C[C@@H](C(=O)N[C@H](Cc2c[nH]c3ccccc23)C(N)=O)N(C(=O)C=C(C)C)C1 class_assignment=inactive
molecule=O=C(NC[C@H]1O[C@H](Cc2cc(-c3ccccc3)on2)CC[C@@H]1O)C1CCC1 class_assignment=inactive
molecule=CC(=O)NC1(C)CCN(Cc2cnc(-c3ccc4c(ccn4C)c3)s2)CC1 class_assignment=inactive
molecule=CC(C)(C)CC(=O)Nc1ccc2c(N3CCOCC3)ncnc2c1 class_assignment=inactive
molecule=CN(C)C[C@@H]1CN(c2ncccn2)C[C@H]1NC(=O)Cc1ccccc1Cl class_assignment=inactive
molecule=COc1ccc(-c2ccc3ncc(Nc4ccc(C(F)(F)F)cc4)n3n2)cn1 class_assignment=active
molecule=CN(CC1CCOCC1)C(=O)Cc1ccsc1 class_assignment=inactive
molecule=Cn1nc2n(c1=O)CCN(S(=O)(=O)c1ccc(C#N)cc1)CC2 class_assignment=inactive
molecule=CC(C)c1ccc(N2C(=O)N[C@@H]3CCN(C(=O)c4ccc(C(C)(C)C)cc4)[C@@H]3C2=O)cc1 class_assignment=active
